Tested on: 439559-082-T-J2-PDC spheroid viability;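 also: spheroids exposed to compounds for seven days before readout; 100% = DMSO vehicle control viability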
Test: Anticancer human tumor 439559-082-T-J2-PDC patient-derived colon adenocarcinoma cell line growth inhibition [POLQ]
Conditions: second compound 0.1 µM; first compound 0.316 µM; stronger effect = lower value; spheroids with HUVEC and MSC
Result Type: viability, T/C (%)
State just the number; it will be interpreted in %.

{"Molecule": "COc1cc2cc(C(=O)CCC(=O)O)sc2cc1OC + COC1C(OC(N)=O)C(O)C(Oc2ccc3c(O)c(NC(=O)c4ccc(O)c(CC=C(C)C)c4)c(=O)oc3c2C)OC1(C)C", "Units": "%", "viability, T/C": 103}
{"Molecule": "C#Cc1c(F)ccc2cc(O)cc(-c3ncc4c(N5CC6CCC(C5)N6)nc(OCC56CCCN5CC(F)C6)nc4c3F)c12 (stereo not given) + Nc1ccc(C#CCN(C(=O)Cc2ncc(C(F)(F)F)cc2C(F)(F)F)c2ccc(F)cc2)nn1", "Units": "%", "viability, T/C": 68}
{"Molecule": "C#Cc1c(F)ccc2cc(O)cc(-c3ncc4c(N5CC6CCC(C5)N6)nc(OCC56CCCN5CC(F)C6)nc4c3F)c12 (stereo not given) + Cc1cccc(N(C)C(=O)C2C(O)CCN2c2nc(C)cc(C(F)(F)F)c2C#N)c1", "Units": "%", "viability, T/C": 72.1}
{"Molecule": "CCc1cc2c(N3CCc4c(cc(Cn5ccnc5)cc4-c4cn(C)nc4C(F)(F)F)C3=O)cc(C)nc2c(OC)n1 + Nc1ccc(C#CCN(C(=O)Cc2ncc(C(F)(F)F)cc2C(F)(F)F)c2ccc(F)cc2)nn1", "Units": "%", "viability, T/C": 89.7}
{"Molecule": "CC(C)n1c(=O)n(C)c2cnc3cc(F)c(-c4ccc(OCCCN5CCCCC5)nc4)cc3c21 + Cc1cccc(N(C)C(=O)C2C(O)CCN2c2nc(C)cc(C(F)(F)F)c2C#N)c1", "Units": "%", "viability, T/C": 107}
{"Molecule": "C=CCn1c(=O)c2cnc(Nc3ccc(N4CCN(C)CC4)cc3)nc2n1-c1cccc(C(C)(C)O)n1 + Nc1ccc(C#CCN(C(=O)Cc2ncc(C(F)(F)F)cc2C(F)(F)F)c2ccc(F)cc2)nn1", "Units": "%", "viability, T/C": 97.9}
{"Molecule": "COc1cc(C2c3cc4c(cc3C(OC3OC5COC(C)OC5C(O)C3O)C3COC(=O)C23)OCO4)cc(OC)c1O (stereo not given) + Cc1cccc(N(C)C(=O)C2C(O)CCN2c2nc(C)cc(C(F)(F)F)c2C#N)c1", "Units": "%", "viability, T/C": 98.1}
{"Molecule": "C=CC(=O)N1CCN(c2nc(=O)n(-c3c(C)ccnc3C(C)C)c3nc(-c4c(O)cccc4F)c(F)cc23)C(C)C1 (stereo not given) + COC1C(OC(N)=O)C(O)C(Oc2ccc3c(O)c(NC(=O)c4ccc(O)c(CC=C(C)C)c4)c(=O)oc3c2C)OC1(C)C", "Units": "%", "viability, T/C": 98}
{"Molecule": "CCc1cc2c(N3CCc4c(cc(Cn5ccnc5)cc4-c4cn(C)nc4C(F)(F)F)C3=O)ccnc2c(OC)n1 + Cc1cccc(N(C)C(=O)C2C(O)CCN2c2nc(C)cc(C(F)(F)F)c2C#N)c1", "Units": "%", "viability, T/C": 90.6}

Would you kindly look at the next entry?
The reported value for COc1cc2cc(C(=O)CCC(=O)O)sc2cc1OC + Nc1ccc(C#CCN(C(=O)Cc2ncc(C(F)(F)F)cc2C(F)(F)F)c2ccc(F)cc2)nn1 in terms of viability, T/C is 93.1
